- study system: Fucose-binding lectin PA-IIL (Pseudomonas aeruginosa (strain ATCC 15692 / DSM 22644 / CIP 104116 / JCM 14847 / LMG 12228 / 1C / PRS 101 / PAO1), UniProt Q9HYN5)
- Sequence (Q9HYN5 whole entry): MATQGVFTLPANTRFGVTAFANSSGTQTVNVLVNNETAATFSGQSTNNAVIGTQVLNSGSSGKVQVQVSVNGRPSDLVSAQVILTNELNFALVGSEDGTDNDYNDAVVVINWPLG
measured quantity: IC50 (µM)
Express your answer in µM, writing the number without its unit.

{"molecule": "COC1O[C@H](CNCc2ccc([N+](=O)O)cc2)[C@@H](O)C(O)[C@@H]1O (stereo partly drawn)", "IC50 [µM]": 117}
{"molecule": "COC1O[C@H](CNC(=O)c2cc([N+](=O)O)cc([N+](=O)O)c2)[C@@H](O)C(O)[C@@H]1O (stereo partly drawn)", "IC50 [µM]": 121}

Now, please, on to the next molecule.
Input line: Recall and state the measured IC50 for COC1O[C@H](CNCc2ccc(C#N)cc2)[C@@H](O)C(O)[C@@H]1O (stereo partly drawn) .
Output line: 115
